Molecular target: T1, endogenous p97 (human, UniProt P55072 2-806)
T1 construct: also called VCP
T1 sequence (P55072 2-806 limits assumed): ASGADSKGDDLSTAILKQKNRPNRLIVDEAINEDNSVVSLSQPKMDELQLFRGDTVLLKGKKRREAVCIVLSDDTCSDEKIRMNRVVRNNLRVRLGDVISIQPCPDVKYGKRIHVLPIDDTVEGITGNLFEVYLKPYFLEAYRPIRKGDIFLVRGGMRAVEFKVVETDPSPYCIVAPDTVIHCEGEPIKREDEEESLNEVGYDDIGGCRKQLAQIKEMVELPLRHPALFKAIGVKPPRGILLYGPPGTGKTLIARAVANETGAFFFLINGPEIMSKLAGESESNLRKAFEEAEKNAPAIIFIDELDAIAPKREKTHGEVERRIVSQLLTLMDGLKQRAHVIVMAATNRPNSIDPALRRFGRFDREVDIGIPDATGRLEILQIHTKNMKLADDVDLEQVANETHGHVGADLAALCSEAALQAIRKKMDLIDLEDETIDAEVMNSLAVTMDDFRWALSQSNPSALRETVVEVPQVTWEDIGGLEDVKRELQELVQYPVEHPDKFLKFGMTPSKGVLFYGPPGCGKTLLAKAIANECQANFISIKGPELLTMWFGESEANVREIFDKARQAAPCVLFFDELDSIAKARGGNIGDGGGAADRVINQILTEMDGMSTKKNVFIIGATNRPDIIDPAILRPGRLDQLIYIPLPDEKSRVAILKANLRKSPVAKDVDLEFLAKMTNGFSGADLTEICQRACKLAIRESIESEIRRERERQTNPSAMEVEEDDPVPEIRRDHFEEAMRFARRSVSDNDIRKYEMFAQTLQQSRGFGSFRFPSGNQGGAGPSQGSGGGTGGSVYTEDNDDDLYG
Assay: Flag co-IP, 293 cells, MudPIT MS

- BINDER: "Flag-UBXD3 (other, UniProt Q96LJ8 1-280, looked up, also called RDB 2149; not shown: N-terminal Flag tag) MATEAPVNIAPPECSTVVSTAVDSLIWQPNSLNMHMIRPKSAKGRTRPSLQKSQGVEVCAHHIPSPPPAIPYELPSSQKPGACAPKSPNQGASDEIPELQQQVPTGASSSLNKYPVLPSINRKNLEEEAVETVAKKASSLQLSSIRALYQDETGTMKTSEEDSRARACAVERKFIVRTKKQGSSRAGNLEEPSDQEPRLLLAVRSPTGQRFVRHFRPTDDLQTIVAVAEQKNKTSYRHCSIETMEVPRRRFSDLTKSLQECRIPHKSVLGISLEDGEGWP"
  sequence count: 57
- BINDER: "Flag-UBXD6 (other, UniProt O00124 1-270, looked up, also called Rep-8/UBXD6; RDB 2145; not shown: N-terminal Flag tag) MASRGVVGIFFLSAVPLVCLELRRGIPDIGIKDFLLLCGRILLLLALLTLIISVTTSWLNSFKSPQVYLKEEEEKNEKRQKLVRKKQQEAQGEKASRYIENVLKPHQEMKLRKLEERFYQMTGEAWKLSSGHKLGGDEGTSQTSFETSNREAAKSQNLPKPLTEFPSPAEQPTCKEIPDLPEEPSQTAEEVVTVALRCPSGNVLRRRFLKSYSSQVLFDWMTRIGYHISLYSLSTSFPRRPLAVEGGQSLEDIGITVDTVLILEEKEQTN"
  sequence count: 55
- BINDER: "Flag-p47 (other, UniProt O35987 1-370, looked up, also called RDB 2148; not shown: N-terminal Flag tag) MAEERQDALREFVAVTGAEEDRARFFLESAGWDLQIALASFYEDGGDEDIVTISQATPSSVSRGTAPSDNRVTSFRDLIHDQDEEEEEEEGQRFYAGGSERSGQQIVGPPRKKSPNELVDDLFKGAKEHGAVAVERVTKSPGETSKPRPFAGGGYRLGAAPEEESAYVAGERRRHSGQDVHVVLKLWKTGFSLDNGDLRSYQDPSNAQFLESIRRGEVPAELRRLAHGGQVNLDMEDHRDEDFVKPKGAFKAFTGEGQKLGSTAPQVLNTSSPAQQAENEAKASSSILINEAEPTTNIQIRLADGGRLVQKFNHSHRISDIRLFIVDARPAMAATSFVLMTTFPNKELADENQTLKEANLLNAVIVQRLT"
  sequence count: 172
